molecular target: CDK2 (Homo sapiens, UniProt P24941); construct: endogenous in cells; host or cells: MDA-MB-231; experiment: CDK protein degradation activity (Western blotting), CDK2; format: cell-based; conditions: MDA-MB-231 cells, 10 μM, 16 hours, Western blot
assayMetric: Enzyme degradation CDK2 (% remaining) @ 10 μM

// O=C1CC[C@H](N2C(=O)c3cc(F)c(N4CCC(C(=O)N5CCC6(CC5)CC(N5CCN(c7ccc(Nc8ncnc9c8ncn9C8CC(NC(=O)Cc9ccccc9)C8)cc7)CC5)C6)CC4)cc3C2=O)C(=O)N1 (some centres unmarked) : Enzyme degradation CDK2 (% remaining) @ 10 μM value = 40/40/40%

// O=C1CC[C@H](N2C(=O)c3ccc(N4CCC(CN5CCC(c6ccc(Nc7ncnc8c7ncn8[C@H]7C[C@@H](NC(=O)Cc8ccccc8)C7)cc6)CC5)CC4)cc3C2=O)C(=O)N1 : Enzyme degradation CDK2 (% remaining) @ 10 μM value = 10/10/10%

// O=C1CC[C@H](N2C(=O)c3ccc(NCC(=O)N4CCC5(CC4)CC(N4CCN(c6ccc(Nc7ncnc8c7ncn8[C@H]7C[C@@H](NC(=O)Cc8ccccc8)C7)cc6)CC4)C5)cc3C2=O)C(=O)N1 : Enzyme degradation CDK2 (% remaining) @ 10 μM value = 50%

// O=C1CC[C@H](N2C(=O)c3cc(F)c(N4CCC(C(=O)N5CCN(CC6CCN(c7ccc(Nc8ncnc9c8ncn9[C@H]8C[C@@H](NC(=O)c9c(Cl)cccc9Cl)C8)cc7)CC6)CC5)CC4)cc3C2=O)C(=O)N1 : Enzyme degradation CDK2 (% remaining) @ 10 μM value = 20/20/20%

// O=C1CCC(N2C(=O)c3ccc(N4CCC(OCCN5CCN(c6ccc(Nc7ncnc8c7ncn8[C@H]7C[C@@H](NC(=O)Cc8ccccc8)C7)cc6)CC5)CC4)cc3C2=O)C(=O)N1 (some centres unmarked) : Enzyme degradation CDK2 (% remaining) @ 10 μM value = 50%

// O=C1CCC(N2C(=O)c3ccc(N4CCC(C(=O)N5CCC(CN6CCN(c7ccc(Nc8ncnc9c8ncn9[C@H]8C[C@@H](NC(=O)c9cccc(C(F)(F)F)n9)C8)cc7)CC6)CC5)CC4)cc3C2=O)C(=O)N1 (some centres unmarked) : Enzyme degradation CDK2 (% remaining) @ 10 μM value = 30/30/30%

// O=C1CC[C@@H](c2cccc(OCC(=O)N3CCC(CCCN4CCN(c5ccc(Nc6ncnc7c6ncn7C6CC(NC(=O)Cc7ccccc7)C6)cc5)CC4)CC3)c2)C(=O)N1 (some centres unmarked) : Enzyme degradation CDK2 (% remaining) @ 10 μM value = 0/0/0%

// O=C1CC[C@H](N2C(=O)c3ccc(N4CCC(CCN5CCN(c6ccc(Nc7ncnc8c7ncn8[C@H]7C[C@@H](NC(=O)c8c(Cl)cccc8Cl)C7)cc6)CC5)CC4)cc3C2=O)C(=O)N1 : Enzyme degradation CDK2 (% remaining) @ 10 μM value = 50/50/50%

---

molecular target: CDK2 (Homo sapiens); construct: endogenous in cells; host or cells: MDA-MB-231; assay: CDK protein degradation activity (Western blotting), CDK2; type: cell-based; conditions: MDA-MB-231 cells, 0.1 μM, 16 hours, Western blot
I'd be grateful if you could share measured Enzyme degradation CDK2 (% remaining) @ 0.1 μM for these entries.

// Cc1cccc(C(=O)N[C@H]2C[C@@H](n3cnc4c(Nc5ccc(N6CCN(CC7CCN(C(=O)C8CCN(c9cc%10c(cc9F)C(=O)N([C@H]9CCC(=O)NC9=O)C%10=O)CC8)CC7)CC6)cc5)ncnc43)C2)n1 : Enzyme degradation CDK2 (% remaining) @ 0.1 μM value = 70%

// O=C1CC[C@H](N2C(=O)C=C(Nc3cccc(CC(=O)N4CCC(CN5CCN(c6ccc(Nc7ncnc8c7ncn8C7CC(NC(=O)Cc8ccccc8)C7)cc6)CC5)CC4)c3)C2=O)C(=O)N1 (stereo partly shown) : Enzyme degradation CDK2 (% remaining) @ 0.1 μM value = 80%

// Cc1cccc(C(=O)N[C@H]2C[C@@H](n3cnc4c(Nc5ccc(N6CCN(CCC7CCN(C(=O)COc8ccc([C@@H]9CCC(=O)NC9=O)cc8)CC7)CC6)cc5)ncnc43)C2)n1 : Enzyme degradation CDK2 (% remaining) @ 0.1 μM value = 30/30/30%

// O=C1CC[C@@H](c2cccc(OCC(=O)N3CCC(CCCN4CCN(c5ccc(Nc6ncnc7c6ncn7C6CC(NC(=O)Cc7ccccc7)C6)cc5)CC4)CC3)c2)C(=O)N1 (stereo partly shown) : Enzyme degradation CDK2 (% remaining) @ 0.1 μM value = 0/0/0%

---

I'd be grateful if you could share measured Enzyme degradation CDK2 (% remaining) @ 10 μM for these entries.
molecular target: CDK2 (Homo sapiens); construct: endogenous in cells; host or cells: MDA-MB-231; assay: CDK protein degradation activity (Western blotting), CDK2; type: cell-based; conditions: MDA-MB-231 cells, 10 μM, 16 hours, Western blot

// O=C1CC[C@H](N2C(=O)c3cccc(NCC(=O)N4CCC(CN5CCN(c6ccc(Nc7ncnc8c7ncn8C7CC(NC(=O)c8cccc(Cl)n8)C7)cc6)CC5)CC4)c3C2=O)C(=O)N1 (some centres unmarked) : Enzyme degradation CDK2 (% remaining) @ 10 μM value = 10/10/10%

// Cc1cccc(C(=O)N[C@H]2C[C@@H](n3cnc4c(Nc5ccc(N6CCN(CC7CCN(C(=O)C8CN(c9ccc%10c(c9)C(=O)N([C@H]9CCC(=O)NC9=O)C%10=O)C8)CC7)CC6)cc5C)ncnc43)C2)n1 : Enzyme degradation CDK2 (% remaining) @ 10 μM value = 70/70/70%

// O=C1CC[C@H](N2C(=O)c3cc(F)c(N4CCC(CCN5CCN(c6ccc(Nc7ncnc8c7ncn8C7CC(NC(=O)c8c(Cl)cccc8Cl)C7)cc6)CC5)CC4)cc3C2=O)C(=O)N1 (some centres unmarked) : Enzyme degradation CDK2 (% remaining) @ 10 μM value = 30/30/30%

// O=C1CC[C@@H](c2ccc(OCC(=O)N3CCC(CN4CCN(c5ccc(Nc6ncnc7c6ncn7C6CC(NC(=O)c7cccc(C(F)(F)F)n7)C6)cc5)CC4)CC3)cc2)C(=O)N1 (some centres unmarked) : Enzyme degradation CDK2 (% remaining) @ 10 μM value = 30/30/30%

// O=C1CCC(N2C(=O)c3cccc(N4CCC(OCCN5CCN(c6ccc(Nc7ncnc8c7ncn8[C@H]7C[C@@H](NC(=O)Cc8ccccc8)C7)cc6)CC5)CC4)c3C2=O)C(=O)N1 (some centres unmarked) : Enzyme degradation CDK2 (% remaining) @ 10 μM value = 20/20/20%

---

target: CDK9 (Homo sapiens, UniProt P50750); construct: endogenous in cells; host or cells: MDA-MB-231; test: CDK protein degradation activity (Western blotting), CDK9; format: cell-based; conditions: MDA-MB-231 cells, 0.1 μM, 16 hours, Western blot
Sequence (P50750 whole entry): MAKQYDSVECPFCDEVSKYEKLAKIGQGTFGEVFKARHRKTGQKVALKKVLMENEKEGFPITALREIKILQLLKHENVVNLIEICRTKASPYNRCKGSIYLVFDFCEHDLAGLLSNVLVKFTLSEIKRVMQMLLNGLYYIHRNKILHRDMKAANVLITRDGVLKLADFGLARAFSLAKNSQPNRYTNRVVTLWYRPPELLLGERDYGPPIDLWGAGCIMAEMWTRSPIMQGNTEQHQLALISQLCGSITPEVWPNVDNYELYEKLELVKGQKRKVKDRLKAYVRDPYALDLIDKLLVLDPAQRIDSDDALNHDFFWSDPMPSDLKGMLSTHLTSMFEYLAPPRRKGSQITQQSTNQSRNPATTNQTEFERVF
assayMetric: Enzyme degradation CDK9 (% remaining) @ 0.1 μM

// O=C1CC[C@H](N2C(=O)c3ccc(N4CCC(CCN5CCN(c6ccc(Nc7ncnc8c7ncn8[C@H]7C[C@@H](NC(=O)c8c(Cl)cccc8Cl)C7)cc6)CC5)CC4)cc3C2=O)C(=O)N1 : Enzyme degradation CDK9 (% remaining) @ 0.1 μM value = 0/0/0%

// O=C1CC[C@H](n2nnc3ccc(N4CCC(CN5CCN(c6ccc(Nc7ncnc8c7ncn8C7CC(NC(=O)c8cccc(Cl)n8)C7)cc6)CC5)CC4)cc3c2=O)C(=O)N1 (stereo partly drawn) : Enzyme degradation CDK9 (% remaining) @ 0.1 μM value = 10/10/10%

// Cc1cccc(C(=O)N[C@H]2C[C@@H](n3cnc4c(Nc5ccc(N6CCN(CC7CCN(C(=O)C8CN(c9ccc%10c(c9)C(=O)N([C@H]9CCC(=O)NC9=O)C%10=O)C8)CC7)CC6)cc5)ncnc43)C2)n1 : Enzyme degradation CDK9 (% remaining) @ 0.1 μM value = 0/0/0%

// O=C1CC[C@H](N2C(=O)c3ccc(N4CCC(C(=O)N5CCC6(CC5)CC(N5CCN(c7ccc(Nc8ncnc9c8ncn9C8CC(NC(=O)Cc9ccccc9)C8)cc7)CC5)C6)CC4)cc3C2=O)C(=O)N1 (stereo partly drawn) : Enzyme degradation CDK9 (% remaining) @ 0.1 μM value = 10/10/10%

// N#Cc1cccc(C(=O)N[C@H]2C[C@@H](n3cnc4c(Nc5ccc(N6CCN(CC7CCN(c8cc9c(cc8F)C(=O)N(C8CCC(=O)NC8=O)C9=O)CC7)CC6)cc5)ncnc43)C2)n1 (stereo partly drawn) : Enzyme degradation CDK9 (% remaining) @ 0.1 μM value = 10/10/10%

// O=C1CCC(N2C(=O)c3cccc(NCC(=O)N4CCC(CN5CCN(c6ccc(Nc7ncnc8c7ncn8[C@H]7C[C@@H](NC(=O)Cc8ccccc8)C7)cc6)CC5)CC4)c3C2=O)C(=O)N1 (stereo partly drawn) : Enzyme degradation CDK9 (% remaining) @ 0.1 μM value = 0/0/0%
